- assay_protocol: inhibitors of TNFa-induced NFkB p65 translocation, primary screen, imaging, HUVEC, MLSMR starter and 10KST1 sets (AID 438);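 note: compound added about 3h40 before a 20 min TNFalpha stimulation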
- condition: HUVEC TNFa-induced p65 nuclear translocation; measured here: nuclei count (cytotoxicity indicator), at 2.08 µM
Tag: true if measured cell count is not below 700, false if it is.

compound=O=C(Nc1ccccc1)c1cc(N2CCOCC2)nc2ccccc12 classification=false
compound=Cc1ccnc(SCCn2c(N3CCN(Cc4ccccc4)CC3)nc3c2c(=O)[nH]c(=O)n3C)n1 classification=false
compound="CCC1CCCCN1CCNS(=O)(=O)c1ccc2c(c1)oc(=O)n2C (stereo unspecified)" classification=true
compound=CCN(CC)c1nc(C)c2c(c1C#N)CC(C)(C)OC2 classification=false
compound="O=C(Nc1ccccc1)N1CCC(c2ccccc2)C1 (stereo unspecified)" classification=false
compound=CCOc1ccccc1N1Cc2cc(C)c(C)cc2C1 classification=false

###

- tested_system: Voltage-gated potassium channel subunit beta-2 (Rattus norvegicus)
- assay_protocol: KvBeta positive modulators, primary screen, biochemical, NADPH fluorescence (AID 623);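 note: fluorescence intensity change per second fitted from 20 to 320 s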
- condition: Recombinant KvBeta, NADPH fluorescence decrease slope, 10 min; at 10 µM; stronger effect = lower value
Listing: NADPH fluorescence slope of selected compounds
readout_kind: NADPH fluorescence slope

compound="COc1cc(C2C(C(=O)c3sc(C)nc3C)=C(O)C(=O)N2CCN(C)C)cc(OC)c1OC (configuration not stated)" recorded_measurement=-0.000115
compound="O=C(Nc1ccccc1)C1=C(O)CC(c2ccoc2)CC1=Nc1ccccc1 (configuration not stated)" recorded_measurement=-5.7e-05
compound=CCCC(=O)NCCc1cc2c(C)ccc(C)c2[nH]c1=O recorded_measurement=-2.9e-05
compound="Cc1ccc(S(=O)(=O)NC(=O)Nc2ncc3c(n2)CC(c2ccco2)CC3=O)cc1 (configuration not stated)" recorded_measurement=-2.8e-05
compound=CN(C)C(=O)c1ccc(COc2ccccc2Br)o1 recorded_measurement=-2.2e-05
compound=O=S(=O)(Nc1ccccn1)c1ccc(Oc2ccccc2)cc1 recorded_measurement=-1.6e-05
compound="CCOc1ccccc1C1C(C(=O)Nc2ccc(OC)cc2)=C(C)Nc2nc(CCCO)nn21 (configuration not stated)" recorded_measurement=-2.8e-05
compound=N#Cc1c2c(c(-c3ccccc3)[nH]c1=O)CCCC2 recorded_measurement=-0.000105
compound=COC(=O)NCC12CC3CC(C1)CC(CNC(=O)OC)(C3)C2 recorded_measurement=-0.0001
compound=CCCCCNc1nc(N2CCCC2)c2c(c1C#N)CCN(C)C2 recorded_measurement=-8.3e-05
compound=Cc1ccc(Cn2nnnc2CN2CCC(O)(c3ccccc3F)CC2)cc1 recorded_measurement=-5.4e-05
compound=O=C(CN1CCc2[nH]c3ccccc3c2C1)N1CCCCC1 recorded_measurement=-8.6e-05
compound=CCCCCCOc1ccc(C(=O)n2cnc(N)n2)cc1 recorded_measurement=-7.5e-05
compound=CCOC(=O)c1oc2ccccc2c1CSc1nnnn1-c1ccc(C)cc1 recorded_measurement=-2.5e-05
compound=Fc1ccccc1Cn1nnc2c(-n3ccnc3)ncnc21 recorded_measurement=3.6e-05
compound=CCc1nnc(NC(=O)CSc2nnc(-c3cc4ccccc4cc3O)n2CC)s1 recorded_measurement=2.5e-06
compound=C=CCNc1nc(N2CCOCC2)c(C#N)c2c1CN(C)CC2 recorded_measurement=-9.1e-05
compound=CN(CCCCCNC(=O)/C=N/O)Cc1ccccc1 recorded_measurement=-6.5e-05
compound=Cc1cc(C)c2c(n1)nn1c(C3CC3)cc(C(F)(F)F)nc21 recorded_measurement=2.7e-06
compound=CCC(=O)Nc1cccc(-c2nnc(SCC(=O)NCc3ccco3)n2C)c1 recorded_measurement=-4e-05
compound="COC(=O)c1ccccc1NC(=O)CC(NCc1ccccc1)C(=O)O (configuration not stated)" recorded_measurement=-8.7e-06
compound=N#CCCNCC1(c2ccccc2)CCCC1 recorded_measurement=-4.5e-05
compound="CC1(C)CC(=O)C2=C(C1)OC(N)=C(C#N)C2C1C=CCCC1 (configuration not stated)" recorded_measurement=-5.1e-05
compound=Cc1cc(=O)oc2ccc(OCC(=O)N3CCc4ccccc43)cc12 recorded_measurement=-7.1e-05
compound=CCOc1cc(-c2nc(-c3ccc(C)nc3OCC)no2)cc(OCC)c1OCC recorded_measurement=-1.4e-05
compound=C=CCn1c(=N)c(C(=O)OCC)cc2c(=O)n3cccc(C)c3nc21 recorded_measurement=-2e-05
compound=CNC(=O)c1ccsc1NC(=O)CN1C(=O)CCC1=O recorded_measurement=-5.2e-05
compound="Cc1cc(=O)n2nc(N3CCCC(C(=O)N4CCc5ccccc54)C3)sc2n1 (configuration not stated)" recorded_measurement=-6.9e-05
compound=O=C(c1ccc(-n2cnnn2)cc1)N1CCOCC1 recorded_measurement=-4.1e-05
compound=CCOC(=O)C1CCN(c2c(NCCN3CCN(c4ccccc4)CC3)c(=O)c2=O)CC1 recorded_measurement=-1.7e-05
compound="N#C/C(C(=O)NCc1ccco1)=C1/SC(Cc2ccc(Cl)cc2)C(=O)N1c1ccccc1 (configuration not stated)" recorded_measurement=-5.4e-05
compound=CCOC(=O)CNC(=O)CCCCCC(=O)NCC(=O)OCC recorded_measurement=-9.3e-05
compound=O=C(c1cccc(F)c1)N1CCc2ccccc21 recorded_measurement=-1.8e-05
compound=COc1ccccc1NC(=O)c1c(C)cc(=O)oc1C recorded_measurement=-3e-05
compound="Cc1ccccc1OCC(O)CN (configuration not stated)" recorded_measurement=1.7e-05
compound=CN(CCc1ccccn1)C(=O)CCNC(=O)Cn1cnc2ccccc2c1=O recorded_measurement=1.1e-05
compound=COc1ccc(OCC(=O)Nc2cccc3ncccc23)cc1 recorded_measurement=-5.4e-05
compound="COCCNC(=O)C(C#N)c1nc2ccccc2nc1N1CCN(Cc2ccc3c(c2)OCO3)CC1 (configuration not stated)" recorded_measurement=-0.000128
compound="COc1cccc(N2CCN(C(=O)c3ccc(=O)oc3)CC2C)c1 (configuration not stated)" recorded_measurement=6.4e-07
compound=CCCn1c(C)cc(C(=O)COc2ncnc3sccc23)c1C recorded_measurement=2.3e-05
compound=O=C(CN1C(=O)CCSc2ccccc21)Nc1ccccc1 recorded_measurement=-0.000395
compound="CCSc1cc(C2C(C(=O)OC)=C(C)NC3=C2C(=O)CCC3)c(C)o1 (configuration not stated)" recorded_measurement=-2.7e-05
compound="CCOC(=O)c1[nH]c2cc3c(cc2c1NC(=O)CN1CC(C)CC(C)C1)OCO3 (configuration not stated)" recorded_measurement=-8.9e-06
compound=NCCCCCc1nnc(SC/C=C/c2ccccc2)o1 recorded_measurement=-4.2e-05
compound="CC(=O)Nc1ccc(OC(=O)CC2SC(=O)NC2=O)cc1 (configuration not stated)" recorded_measurement=-3.2e-05
compound="Cc1ccc(C(=O)NC(Cc2c[nH]c3ccccc23)C(=O)O)o1 (configuration not stated)" recorded_measurement=5.1e-05
compound=CCc1nc2n[nH]c(N)c2c2c1CSC(C)(C)C2 recorded_measurement=-5.1e-05
